EXPERIMENT DESCRIPTION: chemical genetic growth profiling, strain panel (AID 1159580);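 further: tested at 20 µM; growth read once vehicle control cultures reached saturation at 30 °C; 1 = growth at the plate median or of vehicle wells; lower values mean less growth of the strain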
CONDITIONS: S. cerevisiae deletion strains, growth OD, locus YOR184W, strain ser1, active compounds read low
Among all 5,500 compounds or so, about 2,000 (36%) were called active. Not shown: some 18% with an inconclusive outcome. The list shows a part of the results.
RESULT TYPE: normalized growth
Quick one: just the number, no unit, thanks!

Recorded normalized growth, per entry:
C[N+](C)(C)CCCCCC[N+](C)(C)C = 0.988
C=C1C([C@]2(C)C(CC(=O)OC)[C@@](C)(COC(C)=O)OC(=O)C[C@@H]2OC(C)=O)[C@@H](OC=O)[C@H](OC(=O)C(OC(C)=O)C(C)CC)[C@@]2(C)[C@H](c3ccoc3)CC(=O)C12O (stereo not given in full) = 1.02
CC1CC2C3CC(F)C4=CC(=O)C=CC4(C)C3(F)C(O)CC2(C)C1(O)C(=O)CO (stereo not given) = 1.08

Tell me the measured normalized growth of NCC1CCC(C(=O)O)CC1 (stereo not given) , please.
0.981

Try this molecule next: N=c1ccn2c(n1)O[C@@H]1C2O[C@H](CO)[C@H]1O (stereo not given in full)
1.01

CC1/C(=N\O)C[C@@H]2C[C@H]1C2(C)C (stereo not given in full) ?
0.926

Same again, this time with COc1cc(NS(=O)(=O)c2ccc(N)cc2)nc(OC)n1
0.991

Now consider COc1cc2c(cc1OC)Cc1cc(OC)c(OC)cc1Cc1cc(OC)c(OC)cc1C2 .
1.03

Consider next the molecule COc1ccc2c(c1)OCc1c-2oc2cc(OC)ccc12 in the same way.
0.821

Another: CNCCc1ccccn1
1.02

Queued: CC(Oc1ccccc1)C(=O)N[C@@H]1C(=O)N2[C@@H]1SC(C)(C)[C@@H]2C(=O)O (stereo not given in full)
1.02

---

EXPERIMENT DESCRIPTION: chemical genetic growth profiling, strain panel (AID 1159580);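 further: tested at 20 µM; growth read once vehicle control cultures reached saturation at 30 °C; 1 = growth at the plate median or of vehicle wells; lower values mean less growth of the strain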
CONDITIONS: S. cerevisiae deletion strains, growth OD, locus YDR318W, strain mcm21
Screen size: about 5,500 compounds; about 2,000 (36%) were called active. Roughly 18% stayed inconclusive and do not appear here. Cut-off read from the data, not from the text of the source: active = normalized growth mostly below about 0.91 (no sharp cut-off); inconclusive = no clear call, values can overlap the other calls; inactive = mostly above about 0.92. The list shows a part of the results.
A correct response names exactly one class from active, inactive

CN(C)C(=S)SSC(=S)N(C)C = active

What is the recorded call for this compound in the test? CC(NCCc1ccc(O)cc1)C(O)c1ccc(O)cc1 (configuration not stated)
inactive

Okay, and C[N+](C)(C)CCCCCC[N+](C)(C)C ?
inactive

Same again, this time with CCCCCCCCNC(C)C(O)c1ccc(SC(C)C)cc1 (configuration not stated)
active

Then this compound: COc1ccc2c(C)cc(=O)oc2c1
inactive

One more compound: O=C(O)c1cc2ccccc2c(Cc2c(O)c(C(=O)O)cc3ccccc23)c1O
inactive

Can you check O=C(O)c1c2ccccc2cc2ccccc12 next?
inactive

Also check Cc1cc(O)c(C=O)c(O)c1C(=O)O
inactive

And then CC(C[N+](C)(C)C)OC(N)=O (configuration not stated) , what is it?
inactive

Try this compound too: CC(CCc1ccccc1)NC(C)C(O)c1ccc(O)cc1 (configuration not stated)
inactive

Same again, this time with CCN(CC)CCCC(C)Nc1ccnc2cc(Cl)ccc12 (configuration not stated)
inactive

What do you have for CCOC(=O)c1c(C)cc(O)c(C)c1O ?
active

Measured values drawn from PubChem BioAssay AID1159580 for this set.
